// data source = patent US12590099B2

Answer each item with its documented IC50.
Biological target: Recombinant human HDAC2 (Homo sapiens)
Construct: Full length human HDAC2-FLAG was expressed in baculovirus infected Sf9 cells; FLAG (C); made in house; host or cells: Sf9 (baculovirus)
Sequence (Q92769 whole entry): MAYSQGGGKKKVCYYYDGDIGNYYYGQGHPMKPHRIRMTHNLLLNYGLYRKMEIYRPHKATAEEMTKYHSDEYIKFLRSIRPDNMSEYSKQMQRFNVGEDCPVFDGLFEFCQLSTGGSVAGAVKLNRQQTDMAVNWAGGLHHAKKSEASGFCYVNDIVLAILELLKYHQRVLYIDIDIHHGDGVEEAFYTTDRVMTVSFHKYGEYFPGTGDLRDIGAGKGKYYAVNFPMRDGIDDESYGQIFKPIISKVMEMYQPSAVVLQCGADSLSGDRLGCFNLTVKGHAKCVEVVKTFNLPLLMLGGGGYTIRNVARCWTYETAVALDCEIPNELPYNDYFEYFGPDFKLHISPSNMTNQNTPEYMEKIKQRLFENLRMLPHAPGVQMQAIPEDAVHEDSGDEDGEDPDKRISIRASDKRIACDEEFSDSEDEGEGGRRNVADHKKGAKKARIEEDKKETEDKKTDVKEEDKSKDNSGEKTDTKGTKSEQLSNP
Experiment: Human HDAC enzyme inhibitor Fluor-de-Lys assay, HDAC2
Assay type: biochemical
Conditions: recombinant human HDAC2, Fluor-de-Lys assay
Give bare numbers, in nM.

Before answering, review these 3 worked examples.
{"columns": ["molecule", "IC50 [nM]"],
 "data": [
  ["CCCC(=O)CCCCC[C@H](NC(=O)[C@H]1CC12CCN(C)CC2)c1ncc(-c2ccc(F)cc2)[nH]1 [Compound 239]", 77.4],
  ["CCC(=O)CCCCC[C@H](NC(=O)C1=NOC2(CCN(C)CC2)C1)c1ncc(-c2cc3ccc(C)nc3cc2F)[nH]1 [Compound 232]", 21.4],
  ["CCC(=O)CCCCC[C@H](NC(=O)C1CC12CCNCC2)c1nnc(-c2cc3ccccc3nc2OC)o1 (stereo partly shown) [Compound 303]", 40.5]
]}

Record IC50 for all entries; do not skip any.
1. CCC(=O)CCCCC[C@H](NC(=O)C1=NOC2(CCN(C)CC2)C1)c1ncc(-c2cc3cccnc3cc2OC)o1 [Compound 223]
2. CCC(=O)CCCCC[C@H](NC(=O)[C@H]1CC12CCN(C)CC2)c1ncc(-c2cn(C)c3ccccc23)[nH]1 [Compound 264]

Completion:
[9.7, 5.9]

Record IC50 for all entries; do not skip any.
1. CCC(=O)CCCCC[C@H](NC(=O)CC1CC2(C1)CN(C)C2)c1ncc(-c2ccccc2)[nH]1 [Compound 307]
2. CCC(=O)CCCCC[C@H](NC(=O)[C@H]1CC12CCN(C)CC2)c1ncc(-c2cc3ocnc3cc2F)o1 [Compound 389]

Completion:
1: 617; 2: 98.3
